FYI, the data here is from patent US20240182575A1.

# assayedTarget: T1, human CTLA4 (Y201 mutated to valine) on stably transfected CHO-K1 cells (human, UniProt P16410 36-223)
# T1 construct: whole, on cells; the mutation of the intracellular position Y201 keeps the protein on the membrane; also called human CTLA4 overexpressing CHO cells; human CTLA4 transfectant
# T1 sequence (P16410 other isoform, or with tags, fused parts or gaps, change not shown): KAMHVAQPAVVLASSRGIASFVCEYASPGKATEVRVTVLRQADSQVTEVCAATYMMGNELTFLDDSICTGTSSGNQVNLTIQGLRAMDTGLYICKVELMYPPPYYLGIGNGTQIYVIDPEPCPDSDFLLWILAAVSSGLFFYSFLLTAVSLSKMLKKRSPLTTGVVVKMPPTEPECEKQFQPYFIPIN
# experimentalProtocol: FACS, direct binding titration on human CTLA4 CHO cells (head prints IC50)
We begin with a simple list: items and their reported pIC50.
Value format note: pIC50 is -log10 of concentration (mol/L); just state the number.

Task: Look at this binder and give its reported pIC50. 4CTLAPMP12H2 (VHH, short label tied to the entry by the clone code only; not shown: C-terminal c-myc tag and His6 tag) VHH: EVQLVESGGGLVEPGGSLRLSCAASGSISSYNVMGWYRQAPGQQRDLVAHIASNGEIMYADSAKGRFTISRDNAKKTVYLQMNSLKPEDTAVYYCKLWVLGNDYWGQRTQVTVSS
Result: 8.24

Task: Would you mind doing 4CTLAPMP02A5 (VHH, short label tied to the entry by the clone code only; not shown: C-terminal c-myc tag and His6 tag) VHH: EVQLVESGGGLVQAGGSLRLSCAASGRTNSTTLMGWSRRAPGKEREFVAAISGSGTLTSYADSVKGRFAISRDNAKNTVYLQMNSLKPEDTAIYYCAAGLTSWALIPSRTLTTWGQGTQVTVSS as well?
Result: 8.24

Task: Would you mind doing 4CTLAPMP10G5 (VHH, short label tied to the entry by the clone code only; not shown: C-terminal c-myc tag and His6 tag) VHH: EVQLVESGGGLVQAGGSLRLSCAASGGTFSRYIMAWFRQAPGKEREFVAVIDGSGYSTDYAGSVKGRFTIARDNTKNTAYLQMNSLKPEDTALYFCGAGRQYSTGPYWYDYWGQGTQVTVSS as well?
Result: 8.33

Task: Would you mind doing 4CTLAPMP13B2 (VHH, short label tied to the entry by the clone code only; not shown: C-terminal c-myc tag and His6 tag) VHH: EVQLVESGGGLVQPGGSLRLSCVASGIHFAISTINWYRQAPGKQRESVAAITGTSVTGYADSVKGRFTLSRDNAKNTVYLQMDNLKPEDTAVYYCNVWSGRDYWGQGTQVTVSS as well?
Result: 8.44

Task: Would you mind doing 4CTLAPMP11E3 (VHH, also called 11E3 WT; not shown: C-terminal c-myc tag and His6 tag) VHH: EVQLVESGGGLVEPGGSLRLSCAASGSISSYNVMGWYRQAPGQQRDLVAHIASNGEIMYADSAKGRFTISRDNAKKTVYLQMNSLKPEDTAVYYCKLWVLGNDYWGQGTQVTVSS as well?
Result: 8.31
